target: CMP-sialic acid synthetase (NmCSS) (Neisseria meningitidis, UniProt P0A0Z8)
Sequence (P0A0Z8 whole entry): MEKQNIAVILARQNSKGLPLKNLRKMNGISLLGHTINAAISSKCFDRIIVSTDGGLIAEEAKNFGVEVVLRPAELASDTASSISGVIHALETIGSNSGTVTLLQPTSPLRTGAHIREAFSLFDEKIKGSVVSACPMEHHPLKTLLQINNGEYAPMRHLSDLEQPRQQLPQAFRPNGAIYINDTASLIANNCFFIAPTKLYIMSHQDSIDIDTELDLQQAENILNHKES
observation_type: IC50 (µM)
Number in µM, nothing else.

Provide value of IC50 for this record tested with CMP-sialic acid synthetase (NmCSS) (Neisseria meningitidis, UniProt P0A0Z8): CC(=O)N[C@H]1[C@H]([C@H](O)[C@H](O)CO)OC(C(=O)O)=C[C@@H]1O
130
